Each entry below carries its reported log10 of ΔKD.
Molecular target: VEGF (R&D systems, Minneapolis, Minn.) (UniProt P15692-4 27-191, limits assumed)
Sequence (P15692 other isoform, or with tags, fused parts or gaps limits assumed): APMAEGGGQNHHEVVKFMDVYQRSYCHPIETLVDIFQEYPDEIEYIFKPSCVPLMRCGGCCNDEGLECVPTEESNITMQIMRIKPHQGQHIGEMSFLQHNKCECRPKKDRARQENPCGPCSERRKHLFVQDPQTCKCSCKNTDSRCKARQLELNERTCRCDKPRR
Assay: BIAcore SPR, improvement over WT
experimental-endpoint: log10 of ΔKD (log10 of the value in fold)

binder="95 (antibody, human IgG1, V domains shown) VH: EVQLVESGGGLVQPGGSLRLSCAASGYTFTNYGMNWVRQAPGKGLEWVGWINTYTGEPTYAADFKRRFTFSLDTSKSTAYLQMNSLRAEDTAVYYCAKYPDYYGSSHWYFDVWGQGTLVTVSS VL: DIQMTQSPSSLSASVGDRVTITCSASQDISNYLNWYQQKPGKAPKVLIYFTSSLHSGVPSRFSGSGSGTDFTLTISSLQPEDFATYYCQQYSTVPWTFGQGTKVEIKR" experimental_endpoint="log10 of ΔKD" recorded_value=0.11
binder="89 (antibody, human IgG1, V domains shown) VH: EVQLVESGGGLVQPGGSLRLSCAASGYTFTFYGMNWVRQAPGKGLEWVGWINTYTGEPTYAADFKRRFTFSLDTSKSTAYLQMNSLRAEDTAVYYCAKYPPYDGSSHWYFDVWGQGTLVTVSS VL: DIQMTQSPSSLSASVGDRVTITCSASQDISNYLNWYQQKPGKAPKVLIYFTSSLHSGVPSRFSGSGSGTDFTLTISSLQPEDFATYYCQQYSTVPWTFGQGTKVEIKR" experimental_endpoint="log10 of ΔKD" recorded_value=0.85
binder="96 (antibody, human IgG1, V domains shown) VH: EVQLVESGGGLVQPGGSLRLSCAASGYTFTFYGMNWVRQAPGKGLEWVGWINTYTGEPTYAADFKRRFTFSLDTSKSTAYLQMNSLRAEDTAVYYCAKYPPYYGGSHWYFDVWGQGTLVTVSS VL: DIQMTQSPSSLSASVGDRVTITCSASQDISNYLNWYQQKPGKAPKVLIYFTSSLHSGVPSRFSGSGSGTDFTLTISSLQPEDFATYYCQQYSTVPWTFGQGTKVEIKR" experimental_endpoint="log10 of ΔKD" recorded_value=0.04
binder="92 (antibody, human IgG1, V domains shown) VH: EVQLVESGGGLVQPGGSLRLSCAASGYTFTNYGMNWVRQAPGKGLEWVGWINTYTGEPTYAADFKRRFTFSLDTSKSTAYLQMNSLRAEDTAVYYCAKYPPYYGSSHWYFDVWGQGTLVTVSS VL: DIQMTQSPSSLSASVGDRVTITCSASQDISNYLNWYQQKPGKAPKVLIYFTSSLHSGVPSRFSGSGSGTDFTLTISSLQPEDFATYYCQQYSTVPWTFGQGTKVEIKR" experimental_endpoint="log10 of ΔKD" recorded_value=0.45
binder="90 (antibody, human IgG1, V domains shown) VH: EVQLVESGGGLVQPGGSLRLSCAASGYTFTFYGMNWVRQAPGKGLEWVGWINTYTGEPTYAADFKRRFTFSLDTSKSTAYLQMNSLRAEDTAVYYCAKYPDYYGSSHWYFDVWGQGTLVTVSS VL: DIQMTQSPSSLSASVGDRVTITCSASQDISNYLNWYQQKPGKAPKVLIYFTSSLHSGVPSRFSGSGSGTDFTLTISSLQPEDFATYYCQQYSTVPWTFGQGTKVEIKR" experimental_endpoint="log10 of ΔKD" recorded_value=0.80
binder="86 (antibody, human IgG1, V domains shown) VH: EVQLVESGGGLVQPGGSLRLSCAASGYTFTFYGMNWVRQAPGKGLEWVGWINTYTGEPTYAADFKRRFTFSLDTSKSTAYLQMNSLRAEDTAVYYCAKYPDYEGSSHWYFDVWGQGTLVTVSS VL: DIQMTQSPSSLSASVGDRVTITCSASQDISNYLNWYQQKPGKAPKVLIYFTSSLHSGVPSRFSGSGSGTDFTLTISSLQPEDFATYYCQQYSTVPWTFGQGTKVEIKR" experimental_endpoint="log10 of ΔKD" recorded_value=1.04
binder="bevacizumab variant corresponding to SEQ ID NO:82 (antibody, V domains shown) VH: EVQLVESGGGLVQPGGSLRLSCAASGYTFTFYGMNWVRQAPGKGLEWVGWINTYTGEPTYAADFKRRFTFSLDTSKSTAYLQMNSLRAEDTAVYYCAKYPDYDGGSHWYFDVWGQGTLVTVSS VL: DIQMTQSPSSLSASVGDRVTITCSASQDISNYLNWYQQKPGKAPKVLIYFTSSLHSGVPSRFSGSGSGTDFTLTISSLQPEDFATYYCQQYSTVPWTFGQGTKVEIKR" experimental_endpoint="log10 of ΔKD" recorded_value=1.38
binder="83 (antibody, human IgG1, V domains shown) VH: EVQLVESGGGLVQPGGSLRLSCAASGYTFTFYGMNWVRQAPGKGLEWVGWINTYTGEPTYAADFKRRFTFSLDTSKSTAYLQMNSLRAEDTAVYYCAKYPPYDGGSHWYFDVWGQGTLVTVSS VL: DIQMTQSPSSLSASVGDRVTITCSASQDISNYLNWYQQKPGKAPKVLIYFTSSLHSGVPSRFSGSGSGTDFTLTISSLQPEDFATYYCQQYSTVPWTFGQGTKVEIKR" experimental_endpoint="log10 of ΔKD" recorded_value=1.27
binder="91 (antibody, human IgG1, V domains shown) VH: EVQLVESGGGLVQPGGSLRLSCAASGYTFTFYGMNWVRQAPGKGLEWVGWINTYTGEPTYAADFKRRFTFSLDTSKSTAYLQMNSLRAEDTAVYYCAKYPHYYGSSHWYFDVWGQGTLVTVSS VL: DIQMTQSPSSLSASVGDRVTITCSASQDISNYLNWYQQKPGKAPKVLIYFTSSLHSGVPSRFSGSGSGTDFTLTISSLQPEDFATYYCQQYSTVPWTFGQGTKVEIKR" experimental_endpoint="log10 of ΔKD" recorded_value=0.53
binder="87 (antibody, human IgG1, V domains shown) VH: EVQLVESGGGLVQPGGSLRLSCAASGYTFTFYGMNWVRQAPGKGLEWVGWINTYTGEPTYAADFKRRFTFSLDTSKSTAYLQMNSLRAEDTAVYYCAKYPEYDGGSHWYFDVWGQGTLVTVSS VL: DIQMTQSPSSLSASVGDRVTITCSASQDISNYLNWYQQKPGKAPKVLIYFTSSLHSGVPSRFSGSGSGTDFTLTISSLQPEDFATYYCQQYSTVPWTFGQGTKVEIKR" experimental_endpoint="log10 of ΔKD" recorded_value=0.98
